# study.system: crosslinked smooth muscle actomyosin (chicken gizzard smooth muscle myosin subfragment-1 crosslinked to cardiac or skeletal actin) (Gallus gallus)
pIC50: −log10 of the molar value.
metric: pIC50

Answered examples (6):
[
  {
    "molecule": "CCc1ccc(NC(=O)OCC2(C(=O)NCc3ccccc3Cl)CCN(Cc3ccccc3)CC2)cc1",
    "result.value": 4.84
  },
  {
    "molecule": "CCc1ccc(NC(=O)OCC2(C(=O)NCc3ncc[nH]3)CCN(C(=O)CN)CC2)cc1",
    "result.value": 4.73
  },
  {
    "molecule": "CCc1ccc(NC(=O)OCC(NC(C)=O)C(=O)NCc2ccccc2Cl)cc1 (stereo not drawn)",
    "result.value": 4.86
  },
  {
    "molecule": "CCc1ccc(NC(=O)OCC(C)(NC(=O)CO)C(=O)NCc2ccccc2Cl)cc1 (stereo not drawn)",
    "result.value": 5.04
  },
  {
    "molecule": "CCc1ccc(NC(=O)OCC(C)(CCNC(C)=O)C(=O)NCc2ccccc2Cl)cc1 (stereo not drawn)",
    "result.value": 6.13
  },
  {
    "molecule": "CCc1ccc(NC(=O)OCC2(C(=O)NCc3ccccc3C)CCN(C(=O)CN)CC2)cc1",
    "result.value": 6.78
  }
]

I = NCC(=O)N1CCC(COC(=O)Nc2ccc(F)cc2)(C(=O)NCc2ccccc2Cl)CC1
II = CCc1ccc(NC(=O)OCC2(C(=O)NCc3ccccc3Cl)CCN(C(=O)C(C)N(C)C(=O)OC(C)(C)C)CC2)cc1 (stereo not drawn)
III = N[C@@H](CO)C(=O)N1CCC(COC(=O)Nc2ccc(C(F)(F)F)cc2)(C(=O)NCc2ccccc2Cl)CC1
IV = CCc1ccc(NC(=O)OCCCN(C)C(=O)NCc2ccccc2Cl)cc1
Query block: Please give the order of these molecules when sorted by pIC50, largest value leading. In your reply, arrange the labels in the requested order.
Result block: III, IV, II, I
(III: 6.86, IV: 5.78, II: 5.21, I: 4.84)
